assay: Selectivity index, ratio of IC50 for human HeLa cells to IC50 for chloroquine-resistant Plasmodium falciparum W2; type: toxicity; details: read-out: Selectivity Index
Below, each entry is listed alongside its reported selectivity ratio.
Lab note: jot down the number only; don't add units.

>  <compound>
Oc1ccccc1C(c1ccc(F)c(Cl)c1)N1CCN(c2ncnc3sc4c(c23)CCCC4)CC1 (stereo not given)

>  <selectivity ratio>
6.03

$$$$
>  <compound>
COc1cccc(C(c2ccc(C(F)(F)F)cc2)N2CCN(c3ncnc4sc5c(c34)CCCC5)CC2)c1O (stereo not given)

>  <selectivity ratio>
9.59

$$$$
>  <compound>
Oc1ccccc1C(c1ccc(OC(F)(F)F)cc1)N1CCN(c2ncnc3sc4c(c23)CCCC4)CC1 (stereo not given)

>  <selectivity ratio>
7.7

$$$$

Data request, read-out selectivity ratio, for Oc1ccccc1C(c1ccc(F)c(F)c1)N1CCN(c2ncnc3sc4c(c23)CCCC4)CC1 (stereo not given)
12.3

Same question, Oc1ccccc1C(c1ccc(Cl)c(Cl)c1)N1CCN(c2ncnc3sc4c(c23)CCCC4)CC1 (stereo not given) this time
13.7

###

assay: Selectivity index, ratio of IC50 for human A549 cells to IC50 for chloroquine-resistant Plasmodium falciparum W2; format: toxicity; settings: read-out: Selectivity Index
measurement name: selectivity ratio
Lab note: jot down the number only; don't add units.

Previously resolved entries follow.
>  <molecule>
Oc1ccccc1C(c1ccc(F)c(Cl)c1)N1CCN(c2ncnc3sc4c(c23)CCCC4)CC1 (stereo not given)

>  <selectivity ratio>
8.01

$$$$
>  <molecule>
COc1cccc(C(c2ccc(C(F)(F)F)cc2)N2CCN(c3ncnc4sc5c(c34)CCCC5)CC2)c1O (stereo not given)

>  <selectivity ratio>
9.86

$$$$
>  <molecule>
Oc1ccccc1C(c1ccc(Cl)c(Cl)c1)N1CCN(c2ncnc3sc4c(c23)CCCC4)CC1 (stereo not given)

>  <selectivity ratio>
15.3

$$$$
>  <molecule>
Oc1ccccc1C(c1ccc(OC(F)(F)F)cc1)N1CCN(c2ncnc3sc4c(c23)CCCC4)CC1 (stereo not given)

>  <selectivity ratio>
6.09

$$$$

Query molecule follows.
Data request, read-out selectivity ratio, for Oc1ccccc1C(c1ccc(F)c(F)c1)N1CCN(c2ncnc3sc4c(c23)CCCC4)CC1 (stereo not given)
8.43
